- measured on: T1, HEK293T/hPD-L1 (Homo sapiens, UniProt Q9NZQ7)
- T1 construct: expressed in transfected cells; host or cells: HEK293T
- procedure details: Human PD-L1 binding activity assay of candidate anti-human PD-L1 nanobodies (flow cytometry)
- measurement setup: nanobody 10 μg/mL
property label: Binding activity with human PD-L1

>>> result("h_Nb1: anti-human PD-L1 nanobody, VHH SEQ ID NO: 21 (protein, h_Nb1 Amino acid sequence of VHH) VHH: DVQLQESGGGLVQPGGSLRLSCAASGFTFSSYAMSWVRQAPGKGLEWVSDINSGGDNTDYADSVKGRFTISRDNAKNTLYLQMNSLKPEDTAVYYCARGPKLCFSSWGQGTQVTVSS")
"good binding activity"
>>> result("h_Nb9: anti-human PD-L1 nanobody, VHH SEQ ID NO: 40 (protein, h_Nb9 Amino acid sequence of VHH) VHH: DVQLQESGGGLVQPGGSLRLSCASSGSIFGLGVKGWYRQPPGNQREMVAQIISGGRISYADSVKGRFTISRDNAKNTVYLQMNSLKPEDTAVYYCNAWGPGQRNYWGRGTQVTVSS")
"good binding activity"
>>> result("h_Nb6: anti-human PD-L1 nanobody, VHH SEQ ID NO: 37 (protein, h_Nb6 Amino acid sequence of VHH) VHH: DVQLQESGGGLAQPGGSLRLSCAASGFTFSSYAMSWARQAPGKGLEWVAGIYRGGSDTYYADSVKGRFTISRDNTKNTLYLQMNSLKPEDTALYYCIQGWGLGYANYDYWGQGTQVTVSS")
"good binding activity"
